Recorded values, source patent US8362000B2.

target: mutant MGL (Homo sapiens, UniProt Q99685, L169S/L176S); test: MGL ThermoFluor assay - mutant; type: binding; conditions: ThermoFluor concentration-response, read-out: MGL mutant ThermoFluor Kd
measure: pKd
Give bare numbers, as −log10 of the molar value.

INSERT INTO results (compound, result) VALUES
  ('O=C(c1ccccc1)N1CCN(C2CN(C(=O)c3cnc(NCc4ccccc4)s3)C2)CC1 [Cpd 50]', 5.00),
  ('O=C(c1ccc2c(ccn2-c2ccc(C(F)(F)F)cc2)c1)N1CC(N2CCN(C(=O)c3ccc[nH]3)CC2)C1 [Cpd 1339]', 7.89),
  ('O=C(c1ccc(Oc2ccc(Br)cn2)cc1)N1CC(N2CCN(C(=O)c3nccs3)CC2)C1 [Cpd 877]', 7.00);

For each of the items listed, what is its pKd?
1. O=C(c1ccc2c(c1)ncn2-c1ccccc1)N1CC(N2CCN(C(=O)c3nccs3)CC2)C1 [Cpd 1207]
2. Cc1ccc2c(C(F)(F)F)c(C(=O)N3CC(N4CCN(C(=O)c5ccccc5)CC4)C3)sc2c1 [Cpd 510]
3. CCCCCCCC/C=C\CCCCCCCC(=O)N1CC(N2CCN(C(=O)c3nccs3)CC2)C1 [Cpd 641]
4. CCCCCCCc1ccc(C(=O)N2CC(N3CCN(C(=O)c4nccs4)CC3)C2)cc1 [Cpd 892]
5. O=C(c1ccc(SCc2ccc(Cl)c(Cl)c2)cc1)N1CC(N2CCN(C(=O)c3nccs3)CC2)C1 [Cpd 414]
6. O=C(c1ccccc1)N1CCN(C2CN(C(=O)c3ccc(Oc4cccc(Cl)c4)nc3)C2)CC1 [Cpd 519]
7. O=C(c1nccs1)N1CCN(C2CN(C(=O)c3sc4ccc(-c5ccc(C(F)(F)F)cc5)cc4c3F)C2)CC1 [Cpd 1092]

## Output
1: 7.85; 2: 7.17; 3: 6.93; 4: 8.15; 5: 7.60; 6: 6.02; 7: 8.30

* * *

Target: mutant MGL (Homo sapiens, UniProt Q99685, L169S/L176S)
Sequence (Q99685 1-303 L169S/L176S): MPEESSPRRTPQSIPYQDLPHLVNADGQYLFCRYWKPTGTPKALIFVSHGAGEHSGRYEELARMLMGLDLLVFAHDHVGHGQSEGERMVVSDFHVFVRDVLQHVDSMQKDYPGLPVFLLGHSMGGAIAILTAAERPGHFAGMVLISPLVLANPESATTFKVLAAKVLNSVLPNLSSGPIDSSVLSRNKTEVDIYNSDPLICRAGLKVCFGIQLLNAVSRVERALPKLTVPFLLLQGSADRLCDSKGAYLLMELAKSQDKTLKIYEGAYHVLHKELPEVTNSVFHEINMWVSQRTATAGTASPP
Assay: MGL ThermoFluor assay - mutant
Format: binding
Details: ThermoFluor, compound concentration measured by qNMR, read-out: MGL mutant ThermoFluor qKd (μM) (using qNMR conc.)
measure: Kd (µM)
Give bare numbers, in µM.

Worked examples follow.
INSERT INTO assay_data (compound, result) VALUES
  ('O=C(c1nccs1)N1CCN(C2CN(C(=O)c3cn(-c4cccc(F)c4)c4ccccc34)C2)CC1', 0.193),
  ('Cc1c(C(=O)N2CC(N3CCN(C(=O)c4nccs4)CC3)C2)[nH]c2ccc(-c3cccnc3F)cc12', 0.004),
  ('O=C(c1cc(-c2cccc(F)c2)cs1)N1CC(N2CCN(C(=O)c3nccs3)CC2)C1', 0.139),
  ('O=C(c1sc2cc(C(F)(F)F)ccc2c1Cl)N1CC(N2CCN(C(=O)c3cscn3)C(C(F)(F)F)C2)C1 (stereo not shown)', 3.33),
  ('Cc1c(C(=O)N2CC(N3CCN(C(=O)c4nccs4)CC3)C2)[nH]c2ccc(-c3ccc(F)cc3)cc12', 0.01);

For each of the items listed, what is its Kd?
1. O=C(c1ccc2c(ccn2-c2cc(F)c(F)c(F)c2)c1)N1CC(N2CCN(C(=O)c3cscn3)CC2)C1
2. Cn1ccc2cc(C(=O)N3CC(N4CCN(C(=O)c5nccs5)CC4)C3)cc(-c3cccc(F)c3)c21

## Output
1. 0.02
2. 0.031

* * *

Provide the reported 2-AG accumulation, % of vehicle control at 1 µM of each item.
Target: MGL (Rattus norvegicus, UniProt Q8R431)
Construct: one g rat brain was homogenized using a Polytron homogenizer; from tissue; host or cells: rat brain homogenate
Sequence (Q8R431 1-303): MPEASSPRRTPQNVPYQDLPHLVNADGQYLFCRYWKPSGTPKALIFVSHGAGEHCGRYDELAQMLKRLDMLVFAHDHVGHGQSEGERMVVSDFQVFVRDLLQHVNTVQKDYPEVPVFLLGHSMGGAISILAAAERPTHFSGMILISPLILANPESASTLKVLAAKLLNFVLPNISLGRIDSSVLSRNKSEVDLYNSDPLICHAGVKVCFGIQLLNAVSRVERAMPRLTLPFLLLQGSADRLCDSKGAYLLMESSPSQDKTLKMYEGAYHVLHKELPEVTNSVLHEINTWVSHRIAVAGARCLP
Experiment: 2-AG accumulation assay in rat brain homogenate
Format: biochemical
Conditions: rat brain homogenate; compound 1 μM; 2-AG accumulation as percent of vehicle; read-out: Rat Brain 2AG % VehCntrl (%) @ 1 μM
Answer format reminder: number followed by unit.

INSERT INTO assay_data (test_smiles, experimental_target, result) VALUES
  ('Cc1c(C(=O)N2CC(N3CCN(C(=O)c4nccs4)CC3)C2)nn(-c2ccc(Cl)cc2Cl)c1-c1ccc(Cl)cc1', 'MGL (Rattus norvegicus, UniProt Q8R431)', '698%');

For each of the items listed, what is its 2-AG accumulation, % of vehicle control at 1 µM?
1. Cc1c(C(=O)N2CC(N3CCN(C(=O)c4cscn4)CC3)C2)sc2ccc(C(F)(F)F)cc12
2. Cc1c(C(=O)N2CC(N3CCN(C(=O)c4ccccc4)CC3)C2)sc2cc(C(F)(F)F)ccc12

## Output
["520%", "236%"]

For each of the items listed, what is its 2-AG accumulation, % of vehicle control at 1 µM?
1. O=C(c1ccc(-c2nc(-c3ccccc3)cs2)cc1)N1CC(N2CCN(C(=O)c3nccs3)CC2)C1
2. Cc1cc(C(=O)N2CC(N3CCN(C(=O)c4ccns4)CC3)C2)ccc1-c1cccc(C(F)(F)F)c1
3. Cc1oc(-c2ccccc2)cc1C(=O)N1CC(N2CCN(C(=O)c3nccs3)CC2)C1
4. Cn1ccc2cc(C(=O)N3CC(N4CCN(C(=O)c5nccs5)CC4)C3)cc(Br)c21
5. COc1ccc(C(=O)N2CC(N3CCN(C(=O)c4cscn4)CC3)C2)cc1-c1ccccc1

## Output
["944%", "293%", "493%", "406%", "192%"]

* * *

Target: mutant MGL (Homo sapiens, UniProt Q99685, L169S/L176S)
Sequence (Q99685 1-303 L169S/L176S): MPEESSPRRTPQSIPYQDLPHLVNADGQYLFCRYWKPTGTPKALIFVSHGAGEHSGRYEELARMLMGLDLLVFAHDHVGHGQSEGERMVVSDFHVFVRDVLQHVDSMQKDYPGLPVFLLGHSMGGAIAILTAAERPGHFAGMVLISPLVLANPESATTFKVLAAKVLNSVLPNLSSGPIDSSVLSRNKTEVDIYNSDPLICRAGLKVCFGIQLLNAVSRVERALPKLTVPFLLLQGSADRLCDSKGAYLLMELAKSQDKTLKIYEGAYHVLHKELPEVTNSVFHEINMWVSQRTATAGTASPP
Assay: MGL ThermoFluor assay - mutant
Type: binding
Settings: ThermoFluor thermal stability binding assay, read-out: MGL mutant ThermoFluor Kd
measure: pKd
Answers are plain numbers, as −log10 of the molar value.

Worked examples follow.
INSERT INTO assay_data (molecule, experimental_target, result) VALUES
  ('Cc1cn(-c2ccccc2)c2ccc(C(=O)N3CC(N4CCN(C(=O)c5cscn5)CC4)C3)cc12', 'mutant MGL (Homo sapiens, UniProt Q99685, L169S/L176S)', 8.15),
  ('N#CC=Cc1cccc(-c2ccc(C(=O)N3CC(N4CCN(C(=O)c5nccs5)CC4)C3)cc2)c1', 'mutant MGL (Homo sapiens, UniProt Q99685, L169S/L176S)', 8.17),
  ('Cc1nc(-c2ccc(Cl)cc2)sc1C(=O)N1CC(N2CCN(C(=O)c3cscn3)CC2)C1', 'mutant MGL (Homo sapiens, UniProt Q99685, L169S/L176S)', 7.21),
  ('O=C(c1cscn1)N1CCN(C2CN(C(=O)c3sc4cc(C(F)(F)F)ccc4c3Cl)C2)C(C(F)(F)F)C1 (stereo not shown)', 'mutant MGL (Homo sapiens, UniProt Q99685, L169S/L176S)', 4.28),
  ('O=C(c1ccccc1)N1CCN(C2CN(C(=O)c3sc4cc(C(F)(F)F)ccc4c3C3CC3)C2)CC1', 'mutant MGL (Homo sapiens, UniProt Q99685, L169S/L176S)', 7.96);

For each of the items listed, what is its pKd?
1. O=C(c1ccccc1)N1CCN(C2CN(C(=O)c3ccc(OCc4cncc(Cl)c4)cc3)C2)CC1
2. O=C(c1nccs1)N1CCN(C2CN(C(=O)c3cccc4nc(Cc5ccc(Cl)cc5)[nH]c34)C2)CC1
3. O=C(c1ccc(-c2ccccc2)cc1)N1CC(N2CCN(C(=O)c3ccc(Cl)o3)CC2)C1
4. O=C(c1ccc(-c2ccccc2)cc1)N1CC(N2CCN(C(=O)c3ccon3)CC2)C1
5. CC(=O)N1c2ccc(-c3cccc(C(F)(F)F)c3)cc2CCC1C(=O)N1CC(N2CCN(C(=O)c3nccs3)CC2)C1 (stereo not shown)

## Output
1: 5.70; 2: 6.70; 3: 7.60; 4: 6.56; 5: 5.30
